- Test system: OVCAR-4 ovarian
- experimental.protocol: NCI-60 one-dose screen, 48 h
- test.parameters: 10 µM unless noted
This is part of a sample that, as a whole, favours compounds with a hit. Of some 83,000 tested, about 20% had one in any assay. Calls of active or inactive are those of the source. How the source made its calls: active means growth percent below 10; inactive means the rest.
Bench note: report the call from true for active, false for inactive

# count of solved cases: 2
>>> print(df.to_string())
                                   molecule  classification
0  O=C1Nc2ccccc2C2c3cccn3-c3ccccc3N12 (centres undefined)           false
1      CCOC(=O)c1n[nH]n2c1nc(=O)c1cnn(C)c12           false

q: Field: outcome | Entry: CC1=CCC[C@@H]2C1(C)CC[C@H](C)[C@@]2(C)CC1=CC(=O)C(SC(C)(C)C)=CC1=O (some centres undefined)
a: false

q: Field: outcome | Entry: C=CCn1c(SCC(=O)Nc2ccc(C(=O)/C=C/c3cc(OC)c(OC)c(OC)c3)cc2)nnc1-c1cc(-c2ccc(OC)cc2)nc2ccccc12
a: false

* * *

- Tested on: KM12 colon
- experimental.protocol: NCI-60 one-dose screen, 48 h
- test.parameters: 10 µM unless noted
This is part of a sample that, as a whole, favours compounds with a hit. Of some 83,000 tested, about 20% had one in any assay. The source made the active and inactive calls. The calls were made as follows: active = growth percent below 10; inactive = the rest.
Bench note: report the call from active, inactive

# count of solved cases: 10
                                   molecule  classification
0  Cc1ccc(C)c(-n2c(-c3ccc(Br)cc3)csc2=NC(=O)c2ccccc2F)c1        inactive
1  COc1ccc(NC(=O)c2cccc(C3CCc4c(cc(OC)c(OC)c4OC)O3)c2)cc1 (stereo unspecified)        inactive
2  COc1ccc(C2=C/C(=C\c3ccc(Cl)cc3)C(=O)N2/N=C/c2ccc(Cl)cc2)cc1        inactive
3  Cn1cc(-c2nc(-c3c[nH]c4ccncc34)cs2)c2cc(Br)ccc21          active
4  CCCCN1C(=O)/C(=c2\sc3n(c2=O)NC2C(N=3)N(CC)C(=O)N2CC)c2ccccc21 (stereo unspecified)        inactive
5  COc1cc2nc(Nc3cccc(F)c3)nc(Nc3cc(C)[nH]n3)c2cc1OC          active
6  NC(=O)OCCn1cc(-c2nc(-c3c[nH]c4ncccc34)cs2)c2ccccc21        inactive
7   CCOc1ccc(NC(=O)c2cc(OC)c(OC)c(OC)c2)cc1        inactive
8     N=C(N)c1ccc(-c2ccc(-c3ccc(F)cc3)s2)s1          active
9      COc1ccc(Cc2nnc(Nc3nc4ccccc4s3)s2)cc1        inactive

q: Field: outcome | Entry: O=C1N[C@@H]2[C@@H](O)[C@@H](O)[C@H](O)C[C@H]2c2cc3c(c(O)c21)OCCO3
a: active

q: Field: outcome | Entry: COc1ccc(C2C3=C(COC3=O)N(CCO)c3cc4c(cc32)OCCO4)cc1OC (stereo unspecified)
a: inactive

* * *

- System: HOP-62 NSCLC
- experimental.protocol: NCI-60 one-dose screen, 48 h
- test.parameters: 10 µM unless noted
The panel holds about 83,000 compounds, 20% with a hit somewhere; the sample as a whole holds those more often. Calls of active or inactive are those of the source. The calls were made as follows: active = growth percent below 10; inactive = the rest.
Bench note: report the call from t for active, f for inactive

# count of solved cases: 8
                                   compound  classification
0  O=C(CN1C(=O)NC2NC(=O)NC21)N/N=C/c1ccc(Cl)cc1Cl (stereo not given)               f
1   CCOc1ccc(NC(=O)c2cc(OC)c(OC)c(OC)c2)cc1               f
2    O=c1ccc2nc(C(F)(F)F)nn(-c3ccccc3)c-2c1               f
3  CC[C@]12C=CCN3CC[C@@]4(c5ccc(OC)cc5N(C)[C@H]4[C@@](O)(C(=O)OC)[C@@H]1OC(=O)CCCN1CCOCC1)[C@@H]32               f
4                N#CC(C#N)N=Nc1ccc(Cl)cc1Cl               f
5  COc1ccc2c(O)c(/C=C3\N=Nc4ccccc43)oc2c1C[C@H]1CCNC[C@H]1F               f
6  CCN1C(=O)N(CC)C2C1NN=c1s/c(=C\c3ccccc3Br)c(=O)n12 (stereo not given)               f
7     N=C(N)c1ccc(-c2ccc(-c3ccc(F)cc3)s2)s1               f

q: Field: outcome | Entry: Cn1cc(-c2nonc2-c2c[nH]c3ccc(F)cc23)c2cc(Br)ccc21
a: f

q: Field: outcome | Entry: COc1ccc(/C(C)=C(\c2ccc(OCCN3CCCCCC3)cc2)c2ccc(OC(=O)c3ccccc3)cc2)cc1
a: f

q: Field: outcome | Entry: CCOC(=O)c1c(C)c2c(n1C)CSc1cc(S(=O)(=O)c3ccccc3)c(=O)[nH]c1-2
a: f

q: Field: outcome | Entry: CCOC(=O)c1c(-c2ccccc2)n2c(=O)cc(C)c3c(O)c(O)cc1c32
a: f

q: Field: outcome | Entry: COc1cc(/C=C2\C(=O)N(c3c(Cl)cccc3Cl)c3ccccc32)cc(OC)c1OCCCCCCn1c2ccccc2c(=O)c2ccccc21
a: f

q: Field: outcome | Entry: O=C(CCCCNC(=O)c1cc(=O)c(O)co1)Nc1ccccc1
a: f

q: Field: outcome | Entry: CNC(=O)c1c(NC(=O)c2ccc(C(C)(C)C)cc2)sc2c(CN(C)C)c(O)ccc12
a: t

q: Field: outcome | Entry: CN1CCN(Cc2ccc(NC(=O)c3cncc(C#Cc4cnn5ccccc45)c3)cc2C(F)(F)F)CC1
a: t

q: Field: outcome | Entry: CCCCCCCC/C=C\CCCCCCCCOc1ccc(CC(=O)NCC[N+](C)(C)C)cc1
a: f

q: Field: outcome | Entry: O=C1C(Cl)=C(NCCN2CCOCC2)C(=O)c2ncccc21
a: t

q: Field: outcome | Entry: C=C1C(=O)O[C@H]2[C@H]1CC/C(Cn1cc(-c3cc(C(F)(F)F)cc(C(F)(F)F)c3)nn1)=C\CC[C@@]1(C)O[C@@H]21
a: t

q: Field: outcome | Entry: COc1ccc2cc(-c3ccc(-c4ccc(C(=N)N)s4)s3)ccc2c1
a: t
